# experiment: in vivo
# condition.details: female, CD-1, mouse, po, 25 mg/kg
observed.property: AUC(0-inf)

>>> endpoint_result("O=C1CCc2cc(N3CCN(C(=O)c4ccc(F)c(Br)c4)CC3)ncc21 [C48]")
"146 µg·h/mL"
>>> endpoint_result("O=C1CCc2cc(N3CCN(C(=O)c4ccc(F)c(Br)c4)CC3)ccc21 [C21]")
"108 µg·h/mL"
>>> endpoint_result("CC(=O)c1ccc(N2CCN(C(=O)c3ccc4c(c3)OCO4)CC2)cc1 [compound 6]")
"0.46 µg·h/mL"

* * *

Entries below carry reported IC50 on BioA (Mycobacterium tuberculosis, UniProt P9WQ81).
Sequence (P9WQ81 whole entry, looked up): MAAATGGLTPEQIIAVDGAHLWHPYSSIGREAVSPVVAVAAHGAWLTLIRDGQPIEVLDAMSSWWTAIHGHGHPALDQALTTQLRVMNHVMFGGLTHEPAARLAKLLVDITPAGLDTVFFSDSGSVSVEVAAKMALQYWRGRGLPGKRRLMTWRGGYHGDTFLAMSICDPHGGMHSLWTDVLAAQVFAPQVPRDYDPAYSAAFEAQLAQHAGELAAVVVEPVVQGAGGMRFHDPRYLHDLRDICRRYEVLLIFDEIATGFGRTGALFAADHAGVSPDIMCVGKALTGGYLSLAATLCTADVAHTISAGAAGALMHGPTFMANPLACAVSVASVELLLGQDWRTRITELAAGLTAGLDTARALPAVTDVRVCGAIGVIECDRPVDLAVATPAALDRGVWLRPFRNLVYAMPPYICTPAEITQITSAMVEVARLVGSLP
observed.property: IC50 (nM)

>>> endpoint_result("O=C1CCc2cc(N3CCN(C(=O)c4ccc(F)c(Br)c4)CC3)ncc21")
34
>>> endpoint_result("CC(=O)c1ccc(N2CCN(C(=O)c3ccc4c(c3)OCO4)CC2)cc1")
110
>>> endpoint_result("O=C1CCc2cc(N3CCN(C(=O)c4ccc(F)c(Br)c4)CC3)ccc21")
81
